pIC50: −log10 of the molar value.
Heads up, these compounds all have pIC50 values measured for Aldo-keto reductase family 1 member B1 (Rattus norvegicus, UniProt P07943).
quantity-measured: pIC50

(P) O=S(=O)(c1ccc(O)c(F)c1)n1ccc2ccccc21
(Q) O=S(=O)(c1ccccc1O)n1ccc2ccccc21
Which gives the smaller pIC50 number: P or Q ? Bench note: the answer is the label of the chosen record.
Q
(Q: 4.85, P: 6.01)
